- target.or.system: Polyunsaturated fatty acid 5-lipoxygenase (Homo sapiens, UniProt P09917)
- Sequence (P09917 whole entry): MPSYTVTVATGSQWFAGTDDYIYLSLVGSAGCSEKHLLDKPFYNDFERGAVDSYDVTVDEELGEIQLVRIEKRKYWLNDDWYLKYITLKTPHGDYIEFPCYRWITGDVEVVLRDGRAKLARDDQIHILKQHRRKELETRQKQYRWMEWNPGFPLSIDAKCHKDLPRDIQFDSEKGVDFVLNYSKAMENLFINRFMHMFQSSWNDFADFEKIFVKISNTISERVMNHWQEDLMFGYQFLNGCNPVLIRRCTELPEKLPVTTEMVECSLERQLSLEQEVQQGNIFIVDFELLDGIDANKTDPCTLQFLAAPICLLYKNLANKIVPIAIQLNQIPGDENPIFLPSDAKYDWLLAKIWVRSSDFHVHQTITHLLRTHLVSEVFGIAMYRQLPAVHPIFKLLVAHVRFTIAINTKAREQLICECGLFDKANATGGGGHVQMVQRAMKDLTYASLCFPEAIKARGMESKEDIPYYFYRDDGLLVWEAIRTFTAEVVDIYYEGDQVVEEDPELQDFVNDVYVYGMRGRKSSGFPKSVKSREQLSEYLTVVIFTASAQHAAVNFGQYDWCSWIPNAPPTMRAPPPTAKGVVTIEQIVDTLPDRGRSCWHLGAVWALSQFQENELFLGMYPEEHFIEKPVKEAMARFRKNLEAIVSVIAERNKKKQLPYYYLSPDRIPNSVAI
- experiment: Inhibition of 5-lipoxygenase mediated LTB4 synthesis in A-23187 simulated human whole blood
Hi! Just check whether IC50 is below 0.3 µM. Below gives class 1, equal or above gives class 0.

CO/N=C/C1(c2cccc(Sc3ccc(-n4ccnc4C)cc3)c2)CCOCC1 :: class 1
Cc1nccn1Cc1ccc(Sc2cccc(C3(C(N)=O)CCOCC3)c2)cc1 :: class 1
NC(=O)C1(c2cccc(Sc3ccc(Cn4cccc4)cc3)c2)CCOCC1 :: class 1
NC(=O)C1(c2cccc(Sc3ccc(-n4cnnc4)cc3)c2)CCOCC1 :: class 0
Cc1cc(C)n(-c2ccc(Sc3cccc(C4(C(N)=O)CCOCC4)c3)cc2)n1 :: class 0

Exercise: Just wondering, is IC50 of "Cc1nccn1-c1ccc(Sc2cccc([C@]3(C(N)=O)CC4CC[C@H](C3)O4)c2)cc1" below 0.3 µM?
Key: class 0

Exercise: Just wondering, is IC50 of Cc1nccn1-c1ccc(Sc2cccc(C3(C(N)=O)CC4CCC(C3)O4)c2)cc1 (stereo not drawn) below 0.3 µM?
Key: class 0

Exercise: Just wondering, is IC50 of "Cc1nccn1-c1ccc(Sc2cccc(C3(C(N)=O)CCOCC3)c2)cc1" below 0.3 µM?
Key: class 1
